- Assayed target: HaloTag7D106A (Rhodococcus rhodochrous, UniProt P0A3G2, A155T/A167V/A172T/A224E/C128F/C176G/D106A/D78G/E160K/E257K/H272N/K175M/K195N/L47V/L88M/N227D/P291S/S2A/S58T/T264A/Y273L/Y87F)
- Construct: made in house
- Sequence (P0A3G2 other isoform, or with tags, fused parts or gaps with the stated changes): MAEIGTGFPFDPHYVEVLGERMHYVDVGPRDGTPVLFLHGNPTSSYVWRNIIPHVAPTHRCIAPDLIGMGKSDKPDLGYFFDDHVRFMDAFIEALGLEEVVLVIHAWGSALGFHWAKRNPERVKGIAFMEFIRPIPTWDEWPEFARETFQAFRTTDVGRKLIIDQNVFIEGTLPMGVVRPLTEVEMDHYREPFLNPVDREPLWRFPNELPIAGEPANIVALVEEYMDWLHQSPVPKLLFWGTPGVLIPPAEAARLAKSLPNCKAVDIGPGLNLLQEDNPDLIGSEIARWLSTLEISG
- Assay text: FP binding assay of fluorescent HaloTag ligands
- Test parameters: HaloTag7D106A; FP binding assay, 25 nM dye; one-site binding model; read-out: Kd
Measure: pKd
pKd (log units): -log10 of the concentration in mol/L.

Item N=c1ccc2c(-c3cc(C(=O)NCCOCCOCCCCCCCl)ccc3C(=O)O)c3ccc(N)c(S(=O)(=O)O)c3oc-2c1S(=O)(=O)O [Halo-Alexa Fluor 488] : provide pKd
4.03

* * *

- Assayed target: HaloTag7D106A (Rhodococcus rhodochrous, UniProt P0A3G2, A155T/A167V/A172T/A224E/C128F/C176G/D106A/D78G/E160K/E257K/H272N/K175M/K195N/L47V/L88M/N227D/P291S/S2A/S58T/T264A/Y273L/Y87F)
- Construct: made in house
- Assay text: FP binding assay of fluorescent HaloTag ligands
Measure: pKd
Would you please state pKd, meaning minus log10 of the concentration in mol/L, as a bare number?

Give pKd for CN(C)c1ccc2c(-c3cc(C(=O)NCCOCCOCCCCCCCl)ccc3C(=O)[O-])c3ccc(=[N+](C)C)cc-3oc2c1 [Halo-tetramethylrhodamine]
5.18

Name the recorded pKd of the item O=C(NCCOCCOCCCCCCCl)c1ccc(C(=O)[O-])c(-c2c3ccc(=[N+]4CCC4)cc-3oc3cc(N4CCC4)ccc23)c1 [Halo-tetramethylrhodamine-azetidine] in your answer.
5.36

Note pKd for the compound shown: O=C(NCCOCCOCCCCCCCl)c1ccc(C(=O)O)c(-c2c3cc(F)c(=O)cc-3oc3cc(O)c(F)cc23)c1 [Halo-Oregon Green]
4.40

Quickly give me recorded pKd for CN(C)c1ccc2c(c1)C(C)(C)C1=CC(=[N+](C)C)C=CC1=C2c1cc(C(=O)NCCOCCOCCCCCCCl)ccc1C(=O)[O-] [Halo-carbopyronine]
6.21

* * *

- Assayed target: cpHaloΔ9merD106A (Rhodococcus rhodochrous, UniProt P0A3G2, A167V/A172T/A224E/A292T/C128F/C176G/D106A/D78G/E160K/E257K, form not given/H272N/K175M/K195N/L47V/L88M/N227D/P291S/S58T/T264A/Y273L/Y87F)
- Sequence (P0A3G2 other isoform, or with tags, fused parts or gaps with the stated changes, form open): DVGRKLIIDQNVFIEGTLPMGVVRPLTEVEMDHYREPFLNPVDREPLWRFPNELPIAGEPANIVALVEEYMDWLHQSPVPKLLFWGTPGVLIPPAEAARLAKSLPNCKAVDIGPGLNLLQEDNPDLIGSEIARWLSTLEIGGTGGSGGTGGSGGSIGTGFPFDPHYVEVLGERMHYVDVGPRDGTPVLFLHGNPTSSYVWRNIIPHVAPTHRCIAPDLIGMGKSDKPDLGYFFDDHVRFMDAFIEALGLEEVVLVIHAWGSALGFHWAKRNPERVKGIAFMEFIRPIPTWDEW
- Assay text: FP binding assay of fluorescent HaloTag ligands
- Test parameters: 25 nM dye
Entries and their Kd
Numeric answer only, unit µM assumed.

Tell us which Kd value is on record for CN(C)c1ccc2c(c1)C(C)(C)C1=CC(=[N+](C)C)C=CC1=C2c1cc(C(=O)NCCOCCOCCCCCCCl)ccc1C(=O)[O-] [Halo-carbopyronine]
90.5

Entry O=C(NCCOCCOCCCCCCCl)c1ccc(C(=O)[O-])c(-c2c3ccc(=[N+]4CCC4)cc-3oc3cc(N4CCC4)ccc23)c1 [Halo-tetramethylrhodamine-azetidine] needs its Kd filled in; supply it.
227

Find the measured Kd of CN(C)c1ccc2c(-c3cc(C(=O)NCCOCCOCCCCCCCl)ccc3C(=O)[O-])c3ccc(=[N+](C)C)cc-3oc2c1 [Halo-tetramethylrhodamine] and report it.
115
